system: HCT116; experiment: efficacy (fitted maximal change in viability relative to DMSO control); higher = less cytotoxic (negative = loss of viability); conditions: 48 h;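 further: Luminescence-based viability readout, five doses per compound, normalized against on-plate DMSO and empty-well controls, followed by dose-response curve fitting for every drug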
ENDPOINT_LABEL: efficacy

Previously resolved entries follow.
{"MOLECULE": "CCC[C@@H](C=O)NC(=O)[C@H](CC(C)C)NC(=O)[C@H](CC(C)C)NC(=O)OCc1ccccc1", "ENDPOINT_LABEL": "efficacy", "RESULT": "-93.3%"}
{"MOLECULE": "C[S+](=O)([O-])c1ccc(-c2cnc(N)c(C(=O)Nc3ccccc3)n2)cc1", "ENDPOINT_LABEL": "efficacy", "RESULT": "-26.1%"}
{"MOLECULE": "CCC(=O)[N-]S(=O)(=O)c1ccc(-c2c(-c3ccccc3)noc2C)cc1.[Na+] [Parecoxib sodium]", "ENDPOINT_LABEL": "efficacy", "RESULT": "-9.88%"}
{"MOLECULE": "Cn1ncc(Cl)c1-c1cc(C(=O)N[C@H](CN)Cc2cccc(F)c2)sc1Cl", "ENDPOINT_LABEL": "efficacy", "RESULT": "-103%"}
{"MOLECULE": "Cn1cnc([N+](=O)[O-])c1Sc1ncnc2nc[nH]c12", "ENDPOINT_LABEL": "efficacy", "RESULT": "-83.7%"}
{"MOLECULE": "CCN(CCCOc1ccc2c(Nc3cc(CC(=O)Nc4cccc(F)c4)[nH]n3)ncnc2c1)CCOP(=O)(O)O", "ENDPOINT_LABEL": "efficacy", "RESULT": "-24.9%"}
{"MOLECULE": "ClC1=CC=C(C=C1)C(C#N)C2=C(Cl)C=C(C=C2Cl)N3\\N=C/C(=O)NC3=O (stereo not drawn)", "ENDPOINT_LABEL": "efficacy", "RESULT": "-56%"}

Please examine the following record next.
Any idea what efficacy came out for O=C/1\C=C(/OC(=C1)/C2=C3SC4=C(SC3=CC=C2)C=CC=C4)N5CCOCC5 on HCT116?
-77.5%
